# Test Protocol: background-corrected fluorescence of 3'-dye-labeled ssDNA relative to brightest sequence (3'-GCGCG) (fraction); higher = brighter dye fluorescence (less quenching)
# Settings: dye: Cy3 (3' terminal)
Param threshold (0.6) applies to background-corrected fluorescence; output MET when value >= threshold, NOT MET when value < threshold.

Some solved cases for reference:
Sequence Data	Answer Label
TTTTTTGATCATCATGCTGATTTTTTTTTTTTTTTCGGAC [CAGGC]	NOT MET
TTTTTGCATGAGCATGCTGATTTTTTTTTTTTTTTTCTAC [CATCT]	NOT MET
TTTTTTCAGCATCATGAGCATTTTTTTTTTTTTTTGTGCT [TCGTG]	NOT MET
TTTTTTCAGCATGCTGCTGCTTTTTTTTTTTTTTTGTAAA [AAATG]	MET
TTTTTTGCGCAGCATCATGATTTTTTTTTTTTTTTATTGC [CGTTA]	NOT MET
TTTTTTGATGCTCATCATCATTTTTTTTTTTTTTTCAGGG [GGGAC]	MET
TTTTTGCATGCTCATGATGATTTTTTTTTTTTTTTTAGCC [CCGAT]	NOT MET
TTTTTTCAGCATCATGCTCATTTTTTTTTTTTTTTGTGAG [GAGTG]	MET
TTTTTGCATGCTCATGAGCATTTTTTTTTTTTTTTTAGCT [TCGAT]	NOT MET
TTTTTTGATGATCATGAGCATTTTTTTTTTTTTTTCCGCT [TCGCC]	NOT MET

# check: background-corrected fluorescence of TTTTTTGCTGCTGATGCGCATTTTTTTTTTTTTTTAACAT [TACAA] is greater than or equal to 0.6 NOT MET

# check: background-corrected fluorescence of TTTTTGCATGATGCTGATGCTTTTTTTTTTTTTTTTCACA [ACACT] is greater than or equal to 0.6 NOT MET

# check: background-corrected fluorescence of TTTTTTGCGCAGCAGCATGATTTTTTTTTTTTTTTATTTC [CTTTA] is greater than or equal to 0.6 NOT MET

# check: background-corrected fluorescence of TTTTTTGAGCATCATGCTGATTTTTTTTTTTTTTTCTGAC [CAGTC] is greater than or equal to 0.6 NOT MET

# check: background-corrected fluorescence of TTTTTTCATGATCATGCGCATTTTTTTTTTTTTTTGCGAT [TAGCG] is greater than or equal to 0.6 NOT MET

# check: background-corrected fluorescence of TTTTTTGCGCATGAGCATGATTTTTTTTTTTTTTTATCTC [CTCTA] is greater than or equal to 0.6 NOT MET

# check: background-corrected fluorescence of TTTTTTGCTGCTGCGCATGATTTTTTTTTTTTTTTAAATC [CTAAA] is greater than or equal to 0.6 NOT MET

# check: background-corrected fluorescence of TTTTTGCATCAGCATCATGATTTTTTTTTTTTTTTTGTGC [CGTGT] is greater than or equal to 0.6 NOT MET

# check: background-corrected fluorescence of TTTTTTGAGCATGATGCGCATTTTTTTTTTTTTTTCTCAT [TACTC] is greater than or equal to 0.6 NOT MET

# check: background-corrected fluorescence of TTTTTTGATCATGCTCATGATTTTTTTTTTTTTTTCGAGC is greater than or equal to 0.6 NOT MET

# check: background-corrected fluorescence of TTTTTTGAGCATGATGCTCATTTTTTTTTTTTTTTCTCAG [GACTC] is greater than or equal to 0.6 NOT MET

----------
# Test Protocol: background-corrected fluorescence of 3'-dye-labeled ssDNA relative to brightest sequence (3'-GCGCG) (fraction); higher = brighter dye fluorescence (less quenching)
# Settings: dye: Cy3 (3' terminal)
Listed sequences paired with reported background-corrected fluorescence
Could you respond with only the numeric value?

Sequence Data	background-corrected fluorescence
TTTTTTGATCATGCTCATGCTTTTTTTTTTTTTTTCGAGA [AGAGC]	0.695
TTTTTTCATGATGCTGATCATTTTTTTTTTTTTTTGCACG	0.548
TTTTTTGCTCATGATGATCATTTTTTTTTTTTTTTAGCCG [GCCGA]	0.554

Report background-corrected fluorescence for TTTTTTGATCATCATGATCATTTTTTTTTTTTTTTCGGCG [GCGGC] please. 0.704

Report background-corrected fluorescence for TTTTTGCATCAGCATGATCATTTTTTTTTTTTTTTTGTCG [GCTGT] please. 0.552

Report background-corrected fluorescence for TTTTTGCAGCATGCGCATGATTTTTTTTTTTTTTTTTATC [CTATT] please. 0.473

Report background-corrected fluorescence for TTTTTTGCGCATGAGCAGCATTTTTTTTTTTTTTTATCTT [TTCTA] please. 0.458

Report background-corrected fluorescence for TTTTTTCAGCATGATCAGCATTTTTTTTTTTTTTTGTCGT [TGCTG] please. 0.581

Report background-corrected fluorescence for TTTTTTGCGCATCAGCATCATTTTTTTTTTTTTTTATGTG [GTGTA] please. 0.607

Report background-corrected fluorescence for TTTTTTCATGATCATGATGCTTTTTTTTTTTTTTTGCGCA [ACGCG] please. 0.714

----------
# Test Protocol: background-corrected fluorescence of 3'-dye-labeled ssDNA relative to brightest sequence (3'-GCGCG) (fraction); higher = brighter dye fluorescence (less quenching)
# Settings: dye: Cy5 (3' terminal)
Measure: background-corrected fluorescence
Could you respond with only the numeric value?

Sequence Data	background-corrected fluorescence
TTTTTGCATCATGCTGCTGCTTTTTTTTTTTTTTTTGAAA [AAAGT]	0.522

Report background-corrected fluorescence for TTTTTTGATGCTCAGCAGCATTTTTTTTTTTTTTTCAGTT [TTGAC] please. 0.434

Report background-corrected fluorescence for TTTTTTGAGCATGAGCAGCATTTTTTTTTTTTTTTCTCTT please. 0.334

Report background-corrected fluorescence for TTTTTTGCTGCTCATGCTCATTTTTTTTTTTTTTTAAGAG [GAGAA] please. 0.489

Report background-corrected fluorescence for TTTTTTCATGCTGCTGCTGCTTTTTTTTTTTTTTTGAAAA [AAAAG] please. 0.491

Report background-corrected fluorescence for TTTTTTGATGCTGCTGATGATTTTTTTTTTTTTTTCAACC [CCAAC] please. 0.265

Report background-corrected fluorescence for TTTTTTCATGAGCAGCATGCTTTTTTTTTTTTTTTGCTTA [ATTCG] please. 0.408

----------
# Test Protocol: background-corrected fluorescence of 3'-dye-labeled ssDNA relative to brightest sequence (3'-GCGCG) (fraction); higher = brighter dye fluorescence (less quenching)
# Settings: dye: Cy5 (3' terminal)
Param threshold (0.4) applies to background-corrected fluorescence; output met when value >= threshold, not met when value < threshold.

# check: background-corrected fluorescence of TTTTTTGATGATGATCAGCATTTTTTTTTTTTTTTCCCGT [TGCCC] is greater than or equal to 0.4 met

----------
# Test Protocol: background-corrected fluorescence of 3'-dye-labeled ssDNA relative to brightest sequence (3'-GCGCG) (fraction); higher = brighter dye fluorescence (less quenching)
# Settings: dye: Cy5 (3' terminal)
Param threshold (0.4) applies to background-corrected fluorescence; output criterion met when value >= threshold, criterion not met when value < threshold.

Some solved cases for reference:
Sequence Data	Answer Label
TTTTTTGATGCTCATGCTGATTTTTTTTTTTTTTTCAGAC	criterion not met
TTTTTTGCTGATCATGCTCATTTTTTTTTTTTTTTACGAG [GAGCA]	criterion met
TTTTTTGCTGATGAGCATGATTTTTTTTTTTTTTTACCTC [CTCCA]	criterion not met

# check: background-corrected fluorescence of TTTTTGCATGCTCATGATCATTTTTTTTTTTTTTTTAGCG [GCGAT] is greater than or equal to 0.4 criterion met

----------
# Test Protocol: background-corrected fluorescence of 3'-dye-labeled ssDNA relative to brightest sequence (3'-GCGCG) (fraction); higher = brighter dye fluorescence (less quenching)
# Settings: dye: Cy5 (3' terminal)
Listed sequences paired with reported background-corrected fluorescence
Could you respond with only the numeric value?

Use these answered entries as a reference point.
Sequence Data	Measure	Endpoint Result
TTTTTTGATCATGCTGCGCATTTTTTTTTTTTTTTCGAAT [TAAGC]	background-corrected fluorescence	0.402
TTTTTTGAGCATGCTGCTGCTTTTTTTTTTTTTTTCTAAA [AAATC]	background-corrected fluorescence	0.457
TTTTTGCATCATGATGAGCATTTTTTTTTTTTTTTTGCCT [TCCGT]	background-corrected fluorescence	0.356
TTTTTTGATGCTGATGATGCTTTTTTTTTTTTTTTCACCA [ACCAC]	background-corrected fluorescence	0.375
TTTTTTGCTGCTCATGCTGATTTTTTTTTTTTTTTAAGAC [CAGAA]	background-corrected fluorescence	0.363

Report background-corrected fluorescence for TTTTTTCAGCATGCTCATGATTTTTTTTTTTTTTTGTAGC [CGATG] please. 0.441

Report background-corrected fluorescence for TTTTTGCATCATGATCAGCATTTTTTTTTTTTTTTTGCGT please. 0.516

Report background-corrected fluorescence for TTTTTTGATGCTGCTCATGCTTTTTTTTTTTTTTTCAAGA [AGAAC] please. 0.543

Report background-corrected fluorescence for TTTTTTGATCAGCATCATCATTTTTTTTTTTTTTTCGTGG [GGTGC] please. 0.483

Report background-corrected fluorescence for TTTTTTCATCAGCATGCTGATTTTTTTTTTTTTTTGGTAC [CATGG] please. 0.349
